Value source: ChEMBL document CHEMBL1629616

# SYSTEM: Cytochrome P450 2B6 (Homo sapiens, UniProt P20813)
# Sequence (P20813 whole entry): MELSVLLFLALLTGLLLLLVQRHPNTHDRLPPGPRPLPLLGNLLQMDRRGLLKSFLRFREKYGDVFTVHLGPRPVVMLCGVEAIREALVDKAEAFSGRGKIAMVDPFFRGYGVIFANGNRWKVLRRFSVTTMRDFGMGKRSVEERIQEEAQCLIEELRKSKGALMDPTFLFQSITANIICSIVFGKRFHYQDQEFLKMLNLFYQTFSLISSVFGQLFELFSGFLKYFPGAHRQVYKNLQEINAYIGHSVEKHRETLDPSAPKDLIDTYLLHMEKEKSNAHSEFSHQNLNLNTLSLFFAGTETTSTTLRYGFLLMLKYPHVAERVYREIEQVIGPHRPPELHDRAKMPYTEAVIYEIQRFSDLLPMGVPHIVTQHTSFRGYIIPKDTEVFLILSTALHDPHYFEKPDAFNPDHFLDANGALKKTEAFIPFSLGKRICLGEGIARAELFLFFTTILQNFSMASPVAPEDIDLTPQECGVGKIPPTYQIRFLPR
# ASSAY DETAILS: Inhibition of CYP2B6 in human liver microsomes using bupropion as probe after 15 mins
ATTRIBUTE MEASURED: pIC50
Answers are plain numbers, as −log10 of the molar value.

Look up and report measured pIC50 for this entry: C[C@@H](c1ncncc1F)[C@](O)(Cn1cncn1)c1ccc(F)cc1F [VORICONAZOLE]
5.92

---

# SYSTEM: CYP1A2 (Homo sapiens, UniProt P05177)
# Sequence (P05177 whole entry): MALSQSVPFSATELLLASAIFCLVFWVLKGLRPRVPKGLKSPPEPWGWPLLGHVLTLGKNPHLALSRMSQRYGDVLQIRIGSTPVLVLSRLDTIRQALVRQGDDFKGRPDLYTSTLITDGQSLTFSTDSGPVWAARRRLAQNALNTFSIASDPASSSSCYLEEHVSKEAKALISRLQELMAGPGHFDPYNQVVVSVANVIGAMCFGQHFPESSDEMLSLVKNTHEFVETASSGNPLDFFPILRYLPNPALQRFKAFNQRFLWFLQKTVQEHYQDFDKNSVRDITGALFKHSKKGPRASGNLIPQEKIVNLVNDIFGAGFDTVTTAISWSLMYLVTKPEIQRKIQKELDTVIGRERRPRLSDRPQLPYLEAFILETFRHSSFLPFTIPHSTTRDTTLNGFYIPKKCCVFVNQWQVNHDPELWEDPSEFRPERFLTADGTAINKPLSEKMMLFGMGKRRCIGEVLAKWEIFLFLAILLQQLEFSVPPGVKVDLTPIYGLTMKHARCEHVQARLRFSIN
# ASSAY DETAILS: Inhibition of CYP1A2 in human liver microsomes assessed as phenacetin O-deethylation at 100 uM after 30 mins
# Assay type: ADME, Microsome
# CONDITIONS USED: probe phenacetin (O-deethylation)
ATTRIBUTE MEASURED: inhibition at 0.5 h, 100 µM

Look up and report measured inhibition at 0.5 h, 100 µM for this entry: "C[C@@H](c1ncncc1F)[C@](O)(Cn1cncn1)c1ccc(F)cc1F"
< 25%
